- target of assay: T1, AAV9 (adeno-associated virus serotype 9)
- T1 construct: also called adeno-associated virus serotype 9
- assay overview: SPR, AAV on CM5 chip
quantity: log10(kon) (log10 of the value in M⁻¹ s⁻¹)

{"binder": "A4-H5 (VHH) VHH: VQLQASGGGFVQPGGSLRLSCAASGRGFSINTMGWFRQAPGKERELVAVVTRGGTTYYADSVKGRFTISRDNSKNTVYLQMNSLRAEDTAVYYCHVDEVRQSSWTTSNLWGQGTQVTVSS", "assay result": 3.48}
{"binder": "A4-H4 (VHH) VHH: VQLVESGGGLVQPGGSLRLSCAASGSIFSINLMGWFRQAPGKGLELVAIITPGGNTYYADSVKGRFTISRDNSKNTVYLQMNSLRAEDTAVYYCHVDEVRQSSWTTSNLWGQGTLVTVSS", "assay result": 5.12}
{"binder": "A4-H2 (VHH) VHH: VQLQASGGGFVQPGGSLRLSCAASGRSFSINTMGWFRQAPGKEREFVAVVTRGGSTYYADSVKGRFTISRDNSKNTVYLQMNSLRAEDTATYYCHIDEVRQSSWTTSNIWGQGTQVTVSS", "assay result": 3.67}
{"binder": "A4-H3 (VHH) VHH: VQLQASGGGFVQPGGSLRLSCAASGSIFSINLMGWFRQAPGKERELVAVITPGGNTYYADSVKGRFTISRDNSKNTVYLQMNSLRAEDTATYYCHVDEVRQSSWTTSNLWGQGTQVTVSS", "assay result": 5.23}
{"binder": "A4-H6 (VHH) VHH: VQLVESGGGLVQPGGSLRLSCAASGRGFSINTMGWFRQAPGKGRELVAIVTRGGTTYYADSVKGRFTISRDNSKNTVYLQMNSLRAEDTAVYYCHVDEVRQSSWTTSNLWGQGTLVTVSS", "assay result": 3.18}
{"binder": "A4-H1 (VHH) VHH: VQLVESGGGLVQPGGSLRLSCAASGRSFSINTMGWFRQAPGKGLEAVAIVTRGGSTYYADSVKGRFTISRDNSKNTLYLQMNSLRAEDTAVYYCHIDEVRQSSWTTSNIWGQGTLVTVSS", "assay result": 3.73}
